Origin of values: the CheMixHub drug solubility set

- Measurement protocol: xn = mol fraction of the nth substance listed, in the solute-free solvent
- Condition parameters: 283.15 K; x2 = 0.08908
Assignment: determine reported solubility (g/100 g solution) for the given molecules.

Examples with answers:
O=c1cc(CBr)c2ccccc2[nH]1 + CCO + O | 0.0297
O=C1C=CC(=O)N1c1ccccc1Br + CCO + O | 1.24
Nc1cc(-c2ccncc2)c[nH]c1=O + CCO + O | 0.00207
Nc1ncc(Br)nc1Br + CCO + O | 0.0768

Form field: reported solubility (g/100 g solution) of CC(C)C(=O)Nc1ccc([N+](=O)[O-])c(C(F)(F)F)c1 + CCO + O
0.0236

---

Can you tell me solubility (g/100 g solution) for the items I'm about to list?
- Measurement protocol: xn = mol fraction of the nth substance listed, in the solute-free solvent
- Condition parameters: 283.15 K; x2 = 0.3

Solved cases (2 shown):
CC(C)C(=O)Nc1ccc([N+](=O)[O-])c(C(F)(F)F)c1 + CC(C)=O + CC(C)O | 39
Cl.NC1CCSC1=O (centres undefined) + CO + CC#N | 1.04

For every listed record, write down its solubility (g/100 g solution).
1. CC(C)C(=O)Nc1ccc([N+](=O)[O-])c(C(F)(F)F)c1 + CCOC(C)=O + CC(C)O
2. CC(C)C(=O)Nc1ccc([N+](=O)[O-])c(C(F)(F)F)c1 + C1CCOC1 + CC(C)O

1. 34.2
2. 40.3

---

- Measurement protocol: xn = mol fraction of the nth substance listed, in the solute-free solvent
- Condition parameters: 278.15 K; x2 = 0.04165
I'd appreciate it if you could supply solubility (g/100 g solution) values for the items below.
Give bare numbers.

Here are 3 molecules together with their reported answers.
Nc1cc(-c2ccncc2)c[nH]c1=O + CCO + O | 0.00114
Nc1ncc(Br)nc1Br + CCO + O | 0.0211
CC(C)C(=O)Nc1ccc([N+](=O)[O-])c(C(F)(F)F)c1 + CCO + O | 0.00282

Could I get solubility (g/100 g solution) for every one of these entries?
1. O=C1C=CC(=O)N1c1ccccc1Br + CCO + O
2. O=c1cc(CBr)c2ccccc2[nH]1 + CCO + O

1: 0.529; 2: 0.0134

---

Please respond with reported solubility (g/100 g solution) for every item in the list.
- Measurement protocol: xn = mol fraction of the nth substance listed, in the solute-free solvent
- Condition parameters: 313.15 K; x2 = 0.9
Answers are plain numbers.

These recorded examples may help you get a feel for the data.
CC(C)C(=O)Nc1ccc([N+](=O)[O-])c(C(F)(F)F)c1 + CC(C)=O + CC(C)O | 74
Cl.NC1CCSC1=O (centres undefined) + CO + CC#N | 10.7
CC(C)C(=O)Nc1ccc([N+](=O)[O-])c(C(F)(F)F)c1 + CCOC(C)=O + CC(C)O | 56.6

Now, please, on to the next compound.
What does the data say about its solubility (g/100 g solution)? Entry: CC(C)C(=O)Nc1ccc([N+](=O)[O-])c(C(F)(F)F)c1 + C1CCOC1 + CC(C)O
73.7

---

- Measurement protocol: xn = mol fraction of the nth substance listed, in the solute-free solvent
- Condition parameters: 298.15 K; x2 = 0.1666
Reported property: solubility (g/100 g solution)
Give bare numbers.

Below, 4 compounds whose answers are already recorded.
O=c1cc(CBr)c2ccccc2[nH]1 + CCCO + O | 0.11
O=c1cc(CBr)c2ccccc2[nH]1 + CC(C)O + O | 0.082
O=C1C=CC(=O)N1c1ccccc1Br + CC(C)O + O | 4.71
Nc1ncc(Br)nc1Br + CC(C)O + O | 0.194

Next compound, solubility (g/100 g solution) to be filled in.
Returns the measured solubility (g/100 g solution) for the input compound. Input: CC(C)C(=O)Nc1ccc([N+](=O)[O-])c(C(F)(F)F)c1 + CC(C)O + O
1.12

---

- Measurement protocol: xn = mol fraction of the nth substance listed, in the solute-free solvent
- Condition parameters: 293.15 K; x2 = 0.1436
Kind request: treat 0.06 as inclusive, so solubility (g/100 g solution) at 0.06 or higher is 1, anything lower is 0.

Reference set, count: 4
O=C1C=CC(=O)N1c1ccccc1Br + CCO + O | 1
Nc1cc(-c2ccncc2)c[nH]c1=O + CCO + O | 0
O=c1cc(CBr)c2ccccc2[nH]1 + CCO + O | 1
CC(C)C(=O)Nc1ccc([N+](=O)[O-])c(C(F)(F)F)c1 + CCO + O | 1

Say whether Nc1ncc(Br)nc1Br + CCO + O shows solubility (g/100 g solution) of 0.06 or more.
1

---

- Measurement protocol: xn = mol fraction of the nth substance listed, in the solute-free solvent
- Condition parameters: 318.15 K; x2 = 0.5454
Reported property: solubility (g/100 g solution)
Answers are plain numbers.

State recorded solubility (g/100 g solution) for all listed compounds.
1. CC(C)C(=O)Nc1ccc([N+](=O)[O-])c(C(F)(F)F)c1 + CC(C)O + O
2. Nc1ncc(Br)nc1Br + CC(C)O + O
3. O=c1cc(CBr)c2ccccc2[nH]1 + CC(C)O + O
4. O=c1cc(CBr)c2ccccc2[nH]1 + CCCO + O
5. O=C1C=CC(=O)N1c1ccccc1Br + CC(C)O + O

1. 30.8
2. 0.573
3. 0.185
4. 0.228
5. 14.6

---

- Measurement protocol: xn = mol fraction of the nth substance listed, in the solute-free solvent
- Condition parameters: 298.15 K; x2 = 0.03225
Answer each item with its documented solubility (g/100 g solution).
Answers are plain numbers.

Would you please look over these solved cases?
CC(C)C(=O)Nc1ccc([N+](=O)[O-])c(C(F)(F)F)c1 + CC(C)O + O | 0.0116
O=c1cc(CBr)c2ccccc2[nH]1 + CCCO + O | 0.0451
O=c1cc(CBr)c2ccccc2[nH]1 + CC(C)O + O | 0.0355
O=C1C=CC(=O)N1c1ccccc1Br + CC(C)O + O | 1.23

Please turn your attention to the following entry.
# get_value(readout='solubility (g/100 g solution)', item= Nc1ncc(Br)nc1Br + CC(C)O + O )
0.0285

---

- Measurement protocol: xn = mol fraction of the nth substance listed, in the solute-free solvent
- Condition parameters: 293.15 K; x2 = 0.03225
I'd be grateful if you could share measured solubility (g/100 g solution) for these entries.
Give bare numbers.

O=C1C=CC(=O)N1c1ccccc1Br + CC(C)O + O | 0.978

Quick batch: solubility (g/100 g solution) for everything below.
1. O=c1cc(CBr)c2ccccc2[nH]1 + CC(C)O + O
2. Nc1ncc(Br)nc1Br + CC(C)O + O
3. CC(C)C(=O)Nc1ccc([N+](=O)[O-])c(C(F)(F)F)c1 + CC(C)O + O
4. O=c1cc(CBr)c2ccccc2[nH]1 + CCCO + O

[0.0271, 0.0248, 0.00908, 0.0365]

---

- Measurement protocol: xn = mol fraction of the nth substance listed, in the solute-free solvent
- Condition parameters: 298.15 K; x2 = 0.3103
Reported property: solubility (g/100 g solution)
Answers are plain numbers.

For orientation, consider the following solved cases.
O=C1C=CC(=O)N1c1ccccc1Br + CC(C)O + O | 7.2
Nc1ncc(Br)nc1Br + CC(C)O + O | 0.281

For every item in the list below, what is its measured solubility (g/100 g solution)?
1. O=c1cc(CBr)c2ccccc2[nH]1 + CCCO + O
2. O=c1cc(CBr)c2ccccc2[nH]1 + CC(C)O + O
3. CC(C)C(=O)Nc1ccc([N+](=O)[O-])c(C(F)(F)F)c1 + CC(C)O + O

[0.144, 0.106, 6.78]

---

Provide the recorded solubility (g/100 g solution) for the entries that follow.
- Measurement protocol: xn = mol fraction of the nth substance listed, in the solute-free solvent
- Condition parameters: 283.15 K; x2 = 0.4772
Answers are plain numbers.

Example entries begin here.
CC(C)C(=O)Nc1ccc([N+](=O)[O-])c(C(F)(F)F)c1 + CCO + O | 5.78
Nc1cc(-c2ccncc2)c[nH]c1=O + CCO + O | 0.00922
Nc1ncc(Br)nc1Br + CCO + O | 0.338
O=c1cc(CBr)c2ccccc2[nH]1 + CCO + O | 0.0948

Now look at this one.
Need solubility (g/100 g solution) of O=C1C=CC(=O)N1c1ccccc1Br + CCO + O , thanks.
5.92

---

- Measurement protocol: xn = mol fraction of the nth substance listed, in the solute-free solvent
- Condition parameters: 278.15 K; x2 = 0.1666
Classify by measured solubility (g/100 g solution): y if it is equal to or exceeds 0.1, n if it is smaller.

Nc1ncc(Br)nc1Br + CC(C)O + O | y
O=c1cc(CBr)c2ccccc2[nH]1 + CC(C)O + O | n
CC(C)C(=O)Nc1ccc([N+](=O)[O-])c(C(F)(F)F)c1 + CC(C)O + O | y
O=c1cc(CBr)c2ccccc2[nH]1 + CCCO + O | n

Decide: solubility (g/100 g solution) of O=C1C=CC(=O)N1c1ccccc1Br + CC(C)O + O >= 0.1?
y
